Parameter: folding stability dG unfold. Scope: all listed entries.
Experiment: folding stability dG unfold (combined trypsin and chymotrypsin); higher = more stable
Note: unit kcal/mol is implicit; provide only the numeric part.

> print(dat)
                            sequence.record      unit  quantitative.result
1  SAGGKPTQTITITLKDGRTLTIKVGQTVTITLDNGKTITVTVKDATITVKDGKVTITVNGKTYTFTVKSAGG [r13_643_TrROS_Hall]  kcal/mol                 4.62
2  SAGGSMVVVVKLKDGKKIELSVEELKKLAEELGLEPEEEDKEERLERIAKALAEKLGLEVEKVEVLSAGGSA [r2_83_TrROS_Hall]  kcal/mol                 3.33
3  SAGGSAGGIKPGETVLIVFKDKPEILVFPPGMSEEERKAFPGAKFILVKVEKPELTEEELKALESAGGSAGG [r6_830_TrROS_Hall]  kcal/mol               -0.232
4  SAGMETVVTYDPSNGTVTTTTTVFAPDGTPLGSLSTTTPIGGGTITYTTITIDPETGTVTTTTTAYPGASAG [r5_34_JUSTAS]  kcal/mol                 4.25
5  SAGGMTASSTTLPPSGITSQTTTDPATGVTTTTTRYPDGTVTTTTTTALPPPAAATTTTTTALPGSAAASAG [r5_766_JUSTAS]  kcal/mol                 1.77
6  SAGGSAGGSWKIVEIEVQRFPDGMYMVEIRFPDHGMPVTVHIDPPKNKITIYFPNGRSIEIPFSAGGSAGGS [r12_88_TrROS]  kcal/mol                 3.99
7  SAGGSAGGSAGDVEVRFEVKFTPDGTLIIKAEIRLPDIPDVTIRVEAVILPNGEILVKVSSAGGSAGGSAGG [r11_483_TrMRF]  kcal/mol                 3.68
8  SAEMKIEKIEVKPLEEEPELVEITIKVKDPEKLKEALEKAGFTVEEVDEEEGKLTITMSREQLEKLLKASAG [r14_777_TrROS_Hall]  kcal/mol                 1.91

Field: next sequence
Which folding stability dG unfold is reported for this sequence? SAGPTIMIPMPPKESLEEAVEKAIEWIREFFPDNLKPGKKIKIFVHVWDPDNGKQYWVTIEIPIPKGELSAG [r5_916_TrROS] 3.19

---

Parameter: folding stability dG unfold. Scope: all listed entries.
Test: folding stability dG unfold (combined trypsin and chymotrypsin); higher = more stable
Note: unit kcal/mol is implicit; provide only the numeric part.

Which folding stability dG unfold is reported for this sequence? SAGGSAGGSAGMIVLFPLEEKKFIIYDPETGKVEEIEGTPEEVLEYAKKKYPDKEVYLLPSAGGSAGGSAGG [r11_614_TrMRF] 5.15

Which folding stability dG unfold is reported for this sequence? SAGGSAGGSAGGVLYLPDDVKVELVEVTPDGVAKLRVYVYEKDDGDPLVPVPGYDPGAGSAGGSAGGSAGGS [r10_934_TrMRF] -0.777

Which folding stability dG unfold is reported for this sequence? SAGGSAGGSAGGSGPDETILVTRKVTTTEPVLLEHDGTPRVRERTVTRTSSTTERVDLSSAGGSAGGSAGGS [r4_271_JUSTAS] -0.835

Which folding stability dG unfold is reported for this sequence? SKKVTLPIYFPETGEVVTIDLDELAKALGVDPDKLTLTVVSSGKGRVYRIEVFKDGIRIEEIGDVPPELLSA [r9_819_TrMRF] 2.63

Which folding stability dG unfold is reported for this sequence? SAPGLRTYTIYDPSGVRRTFPPSWDVTILEYDPKTGTVTLKITKHNTDPGAPVSTETEKRKATFLRDVESAG [r14_927_JUSTAS] 0.725
